PROCEDURE_SUMMARY: NCI Yeast Anticancer Drug Screen. Data for the mlh1 rad18 strain (AID 175)
REPORTED_CONDITIONS: S. cerevisiae mlh1 rad18 strain growth inhibition; at 50.0 µM; stronger effect = higher value
Compounds without any hit were thinned out: in the full panel of roughly 79,000, 15% have a hit.
// reported growth inhibition for each item listed
The figure you give is taken to be in %; do not add the unit.

Before answering, review these 3 worked examples.
O=C([O-])C(=O)[O-].[Co+3].[NH2-].[NH2-].[NH2-].[NH2-].[O-][Cl+3]([O-])([O-])O: 36.8
COc1ccc2c(c1)CC1N(C)CCC13CCCCC23 (configuration not stated): -70.4
OCC(Br)CBr (configuration not stated): -4.5

Query: Look up growth inhibition: O=Cc1ccccc1O.[Nd]
Result: 6.6

Query: Queued: c1ccc2c(c1)sc1ccccc12
Result: 15.2

Query: Queued: O=[N+]([O-])c1cccc(P(=O)(O)O)c1
Result: 0.85

Query: Queued: Cc1ccc([NH-])c([NH-])c1.[Cl][Pt+2][Cl]
Result: 13.7
